Organism: Rattus norvegicus
Test: Open TG-GATES - Regimen: Single
Type: toxicity, organism-based, Sprague-Dawley
Set-up: regimen Single, gender Male, age 6 weeks
Details: in vivo, po, 0 mg/kg, 3 h, tissue Plasma, route gavage, dose level Control
Can you tell me ALT for the items I'm about to list?
One number for each entry, in IU/L.

O=C(O)COc1nn(Cc2ccccc2)c2ccccc12: 37.2
CC(C)Cc1ccc(C(C)C(=O)O)cc1 (stereo unspecified): 42.4
CC(CCc1ccccc1)NCC(O)c1ccc(O)c(C(N)=O)c1 (stereo unspecified): 45.8
CCN(CC)N=O: 37.4
CC(=O)Nc1ccc2c(c1)Cc1ccccc1-2: 36.6

# input Record request: ALT value, item CC[C@@H](CO)NCCN[C@@H](CC)CO
# output 42.2

====

Species on record: Rattus norvegicus
Assay: Open TG-GATES - Regimen: Daily Repeat
Format: toxicity, organism-based, Sprague-Dawley
Set-up: regimen Daily Repeat, gender Male, age 6 weeks
Settings: in vivo, po, 0 mg/kg, 72 h, tissue Kidney, route gavage, dose level Control, time 3 day
Can you tell me KIDNEY_L for the items I'm about to list?
Hi, when you answer, please include the unit after the number. Thanks!

Guide cases for KIDNEY_L, answers given:
O=C(O)COc1nn(Cc2ccccc2)c2ccccc12 [BENDAZAC]: 1 g
CC(=O)Nc1ccc2c(c1)Cc1ccccc1-2 [2-ACETYLAMINOFLUORENE]: 1.1 g
CC(CCc1ccccc1)NCC(O)c1ccc(O)c(C(N)=O)c1 (stereo not drawn) [LABETALOL]: 1.1 g

Batch: KIDNEY_L for all items listed.
1. CC(=O)N1CCN(c2ccc(OCC3COC(Cn4ccnc4)(c4ccc(Cl)cc4Cl)O3)cc2)CC1 (stereo not drawn) [KETOCONAZOLE]
2. CCN(CC)N=O [N-NITROSODIETHYLAMINE]
3. CC[C@@H](CO)NCCN[C@@H](CC)CO [ETHAMBUTOL]
4. CC(C)Cc1ccc(C(C)C(=O)O)cc1 (stereo not drawn) [IBUPROFEN]

# output
["1.1 g", "1 g", "1.1 g", "0.9 g"]

# input Record request: KIDNEY_L value, item CC(N)=O [ACETAMIDE]
# output 1 g

====

Species on record: Rattus norvegicus
Test: Open TG-GATES - Regimen: Single
Format: toxicity, organism-based, Sprague-Dawley
Parameters: regimen Single, gender Male, age 6 weeks
Settings: in vivo, po, 0 mg/kg, 9 h, tissue Plasma, route gavage, dose level Control
observable: DBIL (mg/dL)
One number for each entry, in mg/dL.

Guide cases for DBIL, answers given:
CC(=O)N1CCN(c2ccc(OCC3COC(Cn4ccnc4)(c4ccc(Cl)cc4Cl)O3)cc2)CC1 (configuration not stated): 0.008
CC(C)Cc1ccc(C(C)C(=O)O)cc1 (configuration not stated): 0.006
CC[C@@H](CO)NCCN[C@@H](CC)CO: 0.002
O=C(O)COc1nn(Cc2ccccc2)c2ccccc12: 0.056
CC(=O)Nc1ccc2c(c1)Cc1ccccc1-2: 0.06

Batch: DBIL for all items listed.
1. CCN(CC)N=O
2. CC(CCc1ccccc1)NCC(O)c1ccc(O)c(C(N)=O)c1 (configuration not stated)

# output
[0.08, 0.01]

====

Species: Rattus norvegicus
Assay: Open TG-GATES - Regimen: Single
Format: toxicity, organism-based, Sprague-Dawley
Set-up: regimen Single, gender Male, age 6 weeks
Conditions: in vivo, po, 0 mg/kg, 9 h, tissue Plasma, route gavage, dose level Control
Returns one of satisfied or not satisfied; satisfied when LDH is >= 200 IU/L.

Consider the following illustrative entries.
O=C(O)COc1nn(Cc2ccccc2)c2ccccc12 [BENDAZAC]: not satisfied
CC(=O)N1CCN(c2ccc(OCC3COC(Cn4ccnc4)(c4ccc(Cl)cc4Cl)O3)cc2)CC1 (stereo unspecified) [KETOCONAZOLE]: satisfied
CC(=O)Nc1ccc2c(c1)Cc1ccccc1-2 [2-ACETYLAMINOFLUORENE]: satisfied
CC(CCc1ccccc1)NCC(O)c1ccc(O)c(C(N)=O)c1 (stereo unspecified) [LABETALOL]: not satisfied

Okay, next one:
# input Hi team, for CC[C@@H](CO)NCCN[C@@H](CC)CO [ETHAMBUTOL] , is the recorded LDH at or above 200 IU/L?
# output not satisfied
